Molecular target: Circumsporozoite protein (CSP) (Plasmodium falciparum (isolate 3D7), UniProt Q7K740)
Sequence (Q7K740 19-374): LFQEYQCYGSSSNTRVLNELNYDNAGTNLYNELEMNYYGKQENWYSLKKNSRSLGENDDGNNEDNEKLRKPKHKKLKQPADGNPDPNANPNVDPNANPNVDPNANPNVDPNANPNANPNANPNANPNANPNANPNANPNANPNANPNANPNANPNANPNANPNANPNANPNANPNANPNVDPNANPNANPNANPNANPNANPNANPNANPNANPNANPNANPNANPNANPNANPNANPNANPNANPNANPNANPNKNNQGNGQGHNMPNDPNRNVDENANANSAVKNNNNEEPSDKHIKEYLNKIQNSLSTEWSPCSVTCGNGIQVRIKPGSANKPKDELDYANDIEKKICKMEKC
Experiment: AVEXIS screen signal:noise (double-corrected)
experimental readout: binding score
One number for each entry.

Check out these entries, answers already filled in.
ADP378 (protein, bait human Fc-tagged dimer) PAPGRPPTHNAHNWRLGQAPANWYNDTYPLSPPQRTPAGIRYRIAVIADLDTESRAQEENTWFSYLKKGYLTLSDSGDKVAVEWDKDHGVLESHLAEKGRGMELSDLIVFNGKLYSVDDRTGVVYQIEGSKAVPWVILSDGDGTVEKGFKAEWLAVKDERLYVGGLGKEWTTTTGDVVNENPEWVKVVGYKGSVDHENWVSNYNALRAAAGIQPPGYLIHESACWSDTLQRWFFLPRRASQERYSEKDDERKGANLLLSASPDFGDIAVSHVGAVVPTHGFSSFKFIPNTDDQIIVALKSEEDSGRVASYIMAFTLDGRFLLPETKIGSVKYEGIEFI; 1.3
ADP391 (protein, bait human Fc-tagged dimer) SSRHVLLQEEVAELQGQVQRTEVARGRLEKRNSDLLLLVDTHKKQIDQKEADYGRLSSRLQAREGLGKRCEDDKVKLQNNISYQMADIHHLKEQLAELRQEFLRQEDQLQDYRKNNTYLVKRLEYESFQCGQQMKELRAQHEENIKKLADQFLEEQKQETQKIQSNDGKELDINNQVVPKNIPKVAENVADKNEEPSSNHIPHGKEQIKRGGDAGMPGIEENDLAKVDDLPPALRKPPISVSQHESHQAISHLPTGQPLSPNMPPDSHINHNGNPGTSKQNPSSPLQRLIPGSNLDSEPRIQTDILKQATKDRVSDFHKLKQSRFFDENESPVDPQHGSKLADYNGDDGNVGEYEADKQAELAYNEEEDGDGGEEDVQGERGPGLHAITMKPTSKFFG; 0.592

Could you now consider this next binder?
So what's the measured binding score for this one? ADP285 (protein, bait human Fc-tagged dimer) LTQGYNNWTNGLYGYSWDMMVHSRSHQHVKITYRDGRTGELGYLNPGVFTQSRRWKDHADMLKQYATCLSRLLPKYNVTEPQIYFDIWVSINDRFQQRIFDPRVDIVQAAWSPFQRTSWVQPLLMDLSPWRAKLQEIKSSLDNHTEVVFIADFPGLHLENFVSEDLGNTSIQLLQGEVTVELVAEQKNQTLREGEKMQLPAGEYHKVYTTSPSPSCYMYVYVNTTELALEQDLAYLQELKEKVENGSETGPLPPELQPLLEGEVKGGPEPTPLVQTFLRRQQRLQEIERRRNTPFHERFFRFLLRKLYVFRRSFLMTCISLRNLILGRPSLEQLAQEVTYANLRPFEAVGELNPSNTDSSHSNPPESNPDPVHSEF
0.774
